B1: library; numbered along this chain (parent)
chain: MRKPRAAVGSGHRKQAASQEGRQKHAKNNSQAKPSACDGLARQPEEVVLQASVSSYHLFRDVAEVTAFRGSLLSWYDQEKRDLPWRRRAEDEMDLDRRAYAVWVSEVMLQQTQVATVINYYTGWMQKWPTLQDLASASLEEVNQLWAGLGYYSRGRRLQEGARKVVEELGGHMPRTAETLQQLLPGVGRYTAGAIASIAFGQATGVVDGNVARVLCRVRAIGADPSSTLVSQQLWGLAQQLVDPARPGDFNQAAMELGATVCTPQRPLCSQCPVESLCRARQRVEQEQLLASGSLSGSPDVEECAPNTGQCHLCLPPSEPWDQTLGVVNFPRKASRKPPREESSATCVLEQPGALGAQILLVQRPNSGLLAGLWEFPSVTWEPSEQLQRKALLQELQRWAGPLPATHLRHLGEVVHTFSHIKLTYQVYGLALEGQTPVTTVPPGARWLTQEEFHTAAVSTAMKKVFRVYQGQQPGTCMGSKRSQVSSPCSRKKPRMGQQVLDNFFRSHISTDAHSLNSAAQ

Variants of: B1
Experiment: 8OG:A repair function score (normalized; synonymous = 0, nonsense = -1) (normalized log-likelihood score); higher = more repair activity (WT-like);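 further: cells sorted at 72 h after reporter transfection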
Conditions: with 8OG:A DNA repair reporter (GFP) in HEK-293 MUTYH KO cells
Lab note: compare 8OG:A repair function score against -0.8. Equal or greater, write Satisfied. Smaller, write Not satisfied.

>  <sequence_variant>
A192C

>  <label_class>
Satisfied

$$$$
>  <sequence_variant>
S55T

>  <label_class>
Satisfied

$$$$
>  <sequence_variant>
E287A

>  <label_class>
Satisfied

$$$$
>  <sequence_variant>
P377W

>  <label_class>
Not satisfied

$$$$
>  <sequence_variant>
R482I

>  <label_class>
Satisfied

$$$$
>  <sequence_variant>
D133G

>  <label_class>
Satisfied

$$$$
>  <sequence_variant>
E178Y

>  <label_class>
Satisfied

$$$$
>  <sequence_variant>
R217M

>  <label_class>
Not satisfied

$$$$
>  <sequence_variant>
Y428D

>  <label_class>
Not satisfied

$$$$
>  <sequence_variant>
P264T

>  <label_class>
Satisfied

$$$$
>  <sequence_variant>
L49G

>  <label_class>
Satisfied

$$$$
>  <sequence_variant>
S486W

>  <label_class>
Satisfied

$$$$
>  <sequence_variant>
F376R

>  <label_class>
Not satisfied

$$$$
>  <sequence_variant>
A51F

>  <label_class>
Satisfied

$$$$
>  <sequence_variant>
V207C

>  <label_class>
Satisfied

$$$$
>  <sequence_variant>
Q144H

>  <label_class>
Satisfied

$$$$
>  <sequence_variant>
D208M

>  <label_class>
Not satisfied

$$$$
>  <sequence_variant>
Q240I

>  <label_class>
Not satisfied

$$$$

// data source = the supplement of paper PMC11908140
